# assay_text: NCI Yeast Anticancer Drug Screen. Data for the mlh1 rad18 strain (AID 175)
# settings: S. cerevisiae mlh1 rad18 strain growth inhibition; at 50.0 µM; active compounds read high
This is part of a sample that, as a whole, favours compounds with a hit. Of some 79,000 tested, about 15% had one in any assay. Activity calls are given as the source filed them. Cut-off read from the data, not from the text of the source: active = growth inhibition above about 70%; inactive = the rest.
readout_type: growth inhibition

Look up growth inhibition for this compound: `Cc1ccc(-n2cc(-c3ccc(Cl)cc3)c3c(N)ncnc32)cc1`
96.8% (active)

Input `Cc1c(Cl)nc(-c2ccccc2)nc1C(=O)CCl`
4.5% (inactive)

Input CC1=NN(c2nc(N)nc(C(C)Sc3cc(Cl)c(C)cc3S(N)(=O)=O)n2)C(C)(C)C1 (stereo not given)
2.9% (inactive)

Input `NC(=Nc1cc2ccccc2c2ccccc12)/N=C(/N)Nc1cc2ccccc2c2ccccc12`
51.7% (inactive)

Input `Cc1cc(Cl)c2c(c1)C(=N/O)/C(=C\c1ccco1)O2`
85.2% (active)

Input CC(/C(=N/NC(=O)C(N)=O)c1c(Cl)ccc(Cl)c1O)C1(O)C(=O)Nc2ccccc21 (stereo not given)
86.5% (active)

Input `Cc1ccc(N=NC(C(=O)c2ccccc2)C(=O)c2ccccc2)cc1`
92.5% (active)

Input `O=[N+]([O-])c1ccc2c(c1)Cc1cc(O)c(I)cc1-2`
97.2% (active)

Input `Fc1ccc(CN2COc3c(cc(Cl)c4cccnc34)C2)cc1`
99.5% (active)

Input `N#CSCc1c(Cl)cccc1Cl`
79.8% (active)

Input `Cc1c(Cl)cccc1N=NC(=O)NNc1cccc(Cl)c1C`
81.5% (active)

Input `CN(C)COC(=S)SCN(C)C`
98.2% (active)

Input `Cc1ccc(S(=O)(=O)NC(=O)CC2CCCCC2)cc1`
91.5% (active)

Input COc1cc(OC)cc(C2OC3=C(Nc4ccc([N+](=O)[O-])cc4N3)C2=O)c1 (stereo not given)
82.4% (active)

Input O=C1OC(=O)C2C3CCC(C3=C3CCCCC3)C12 (stereo not given)
36.8% (inactive)

Input `C[n+]1c(-c2cccc(OCCCCCCCCOc3cccc(-c4c5cc(N)ccc5c5ccc(N)cc5[n+]4C)c3)c2)c2cc(N)ccc2c2ccc(N)cc21`
89.3% (active)

Input CCC(CCCN(CC)CCc1ccccc1)OC(=O)c1cc(OC)c(OC)c(OC)c1 (stereo not given)
54.5% (inactive)

Input `Cc1ccc(/C=C2\CCCc3ccccc3C2=O)cc1`
55.1% (inactive)

Input `O=C(Nc1ccccc1)c1cc(Cl)ccc1O`
84% (active)

Input `N#Cc1cc2cccn2c2c1cnn2-c1ccccc1`
-2.95% (inactive)

Input CCCCCCCCCCCC1C(C#N)C(=O)NC(=O)C1C#N (stereo not given)
26% (inactive)

Input `Nc1ccc(/C=C/c2ccccc2)cc1`
94% (active)

Input `O=[N+]([O-])c1cc(Cl)c(Cl)cc1NS(=O)(=O)c1ccccc1`
71.2% (active)

Input `Cc1cc(N2C(=O)CSC2=S)ccc1Cl`
51.2% (inactive)

Input `Cc1cc2nc(CS)[nH]c2cc1C`
44.2% (inactive)

Input `Oc1c(Br)c(Br)c(O)c(Br)c1Br`
98% (active)

Input `Nc1ccc(Cc2ccc(Cl)cc2)cc1`
99.2% (active)

Input `O=C1Nc2ccccc2/C1=C/c1ccc(Cl)c(Cl)c1`
78% (active)

Input COC(=O)[C@@H]1c2cc3c(c(O)c2[C@@H](OC2OC(C)C(OC)C(C)(OC)C2OC)C[C@]1(C)O)C(=O)c1c(O)cc2c(c1C3=O)O[C@H]1O[C@]2(C)[C@H](O)[C@@H](N(C)C)[C@@H]1O (stereo not given in full)
89.8% (active)

Input `CCCN1C(=O)c2ccccc2C1=O`
9.5% (inactive)

Input `COc1ccc2nc3cc(Cl)ccc3c(NCCNc3c4ccc(Cl)cc4nc4ccc(OC)cc34)c2c1`
97.3% (active)

Input `ClC1=C(Cl)C2c3ccccc3C1c1ccccc12`
95.7% (active)

Input `CC(C)/C(Cl)=N\OC(=O)Nc1ccc(S(N)(=O)=O)cc1`
-38.8% (inactive)

Input C[C-](O)O.O/C(=C\[C-](O)c1ccccc1)c1ccccc1.O/C(=C\[C-](O)c1ccccc1)c1ccccc1.[Nd+3] (stereo not given)
85.9% (active)

Input COc1cc2c(c(OC)c1OC)-c1ccc(SC)c(=O)cc1[C@@H](NC1OC(COC(C)=O)C(OC(C)=O)C(OC(C)=O)C1OC(C)=O)CC2 (stereo not given in full)
7.15% (inactive)
